I'd appreciate it if you could supply kon values for the items below.
# MEASURED TARGET: T1, Clostridium difficile toxin A (TcdA) (Clostridium difficile, UniProt P16154 1-2710)
# T1 construct: mature; also called full-length TcdA
# T1 sequence (P16154 whole entry): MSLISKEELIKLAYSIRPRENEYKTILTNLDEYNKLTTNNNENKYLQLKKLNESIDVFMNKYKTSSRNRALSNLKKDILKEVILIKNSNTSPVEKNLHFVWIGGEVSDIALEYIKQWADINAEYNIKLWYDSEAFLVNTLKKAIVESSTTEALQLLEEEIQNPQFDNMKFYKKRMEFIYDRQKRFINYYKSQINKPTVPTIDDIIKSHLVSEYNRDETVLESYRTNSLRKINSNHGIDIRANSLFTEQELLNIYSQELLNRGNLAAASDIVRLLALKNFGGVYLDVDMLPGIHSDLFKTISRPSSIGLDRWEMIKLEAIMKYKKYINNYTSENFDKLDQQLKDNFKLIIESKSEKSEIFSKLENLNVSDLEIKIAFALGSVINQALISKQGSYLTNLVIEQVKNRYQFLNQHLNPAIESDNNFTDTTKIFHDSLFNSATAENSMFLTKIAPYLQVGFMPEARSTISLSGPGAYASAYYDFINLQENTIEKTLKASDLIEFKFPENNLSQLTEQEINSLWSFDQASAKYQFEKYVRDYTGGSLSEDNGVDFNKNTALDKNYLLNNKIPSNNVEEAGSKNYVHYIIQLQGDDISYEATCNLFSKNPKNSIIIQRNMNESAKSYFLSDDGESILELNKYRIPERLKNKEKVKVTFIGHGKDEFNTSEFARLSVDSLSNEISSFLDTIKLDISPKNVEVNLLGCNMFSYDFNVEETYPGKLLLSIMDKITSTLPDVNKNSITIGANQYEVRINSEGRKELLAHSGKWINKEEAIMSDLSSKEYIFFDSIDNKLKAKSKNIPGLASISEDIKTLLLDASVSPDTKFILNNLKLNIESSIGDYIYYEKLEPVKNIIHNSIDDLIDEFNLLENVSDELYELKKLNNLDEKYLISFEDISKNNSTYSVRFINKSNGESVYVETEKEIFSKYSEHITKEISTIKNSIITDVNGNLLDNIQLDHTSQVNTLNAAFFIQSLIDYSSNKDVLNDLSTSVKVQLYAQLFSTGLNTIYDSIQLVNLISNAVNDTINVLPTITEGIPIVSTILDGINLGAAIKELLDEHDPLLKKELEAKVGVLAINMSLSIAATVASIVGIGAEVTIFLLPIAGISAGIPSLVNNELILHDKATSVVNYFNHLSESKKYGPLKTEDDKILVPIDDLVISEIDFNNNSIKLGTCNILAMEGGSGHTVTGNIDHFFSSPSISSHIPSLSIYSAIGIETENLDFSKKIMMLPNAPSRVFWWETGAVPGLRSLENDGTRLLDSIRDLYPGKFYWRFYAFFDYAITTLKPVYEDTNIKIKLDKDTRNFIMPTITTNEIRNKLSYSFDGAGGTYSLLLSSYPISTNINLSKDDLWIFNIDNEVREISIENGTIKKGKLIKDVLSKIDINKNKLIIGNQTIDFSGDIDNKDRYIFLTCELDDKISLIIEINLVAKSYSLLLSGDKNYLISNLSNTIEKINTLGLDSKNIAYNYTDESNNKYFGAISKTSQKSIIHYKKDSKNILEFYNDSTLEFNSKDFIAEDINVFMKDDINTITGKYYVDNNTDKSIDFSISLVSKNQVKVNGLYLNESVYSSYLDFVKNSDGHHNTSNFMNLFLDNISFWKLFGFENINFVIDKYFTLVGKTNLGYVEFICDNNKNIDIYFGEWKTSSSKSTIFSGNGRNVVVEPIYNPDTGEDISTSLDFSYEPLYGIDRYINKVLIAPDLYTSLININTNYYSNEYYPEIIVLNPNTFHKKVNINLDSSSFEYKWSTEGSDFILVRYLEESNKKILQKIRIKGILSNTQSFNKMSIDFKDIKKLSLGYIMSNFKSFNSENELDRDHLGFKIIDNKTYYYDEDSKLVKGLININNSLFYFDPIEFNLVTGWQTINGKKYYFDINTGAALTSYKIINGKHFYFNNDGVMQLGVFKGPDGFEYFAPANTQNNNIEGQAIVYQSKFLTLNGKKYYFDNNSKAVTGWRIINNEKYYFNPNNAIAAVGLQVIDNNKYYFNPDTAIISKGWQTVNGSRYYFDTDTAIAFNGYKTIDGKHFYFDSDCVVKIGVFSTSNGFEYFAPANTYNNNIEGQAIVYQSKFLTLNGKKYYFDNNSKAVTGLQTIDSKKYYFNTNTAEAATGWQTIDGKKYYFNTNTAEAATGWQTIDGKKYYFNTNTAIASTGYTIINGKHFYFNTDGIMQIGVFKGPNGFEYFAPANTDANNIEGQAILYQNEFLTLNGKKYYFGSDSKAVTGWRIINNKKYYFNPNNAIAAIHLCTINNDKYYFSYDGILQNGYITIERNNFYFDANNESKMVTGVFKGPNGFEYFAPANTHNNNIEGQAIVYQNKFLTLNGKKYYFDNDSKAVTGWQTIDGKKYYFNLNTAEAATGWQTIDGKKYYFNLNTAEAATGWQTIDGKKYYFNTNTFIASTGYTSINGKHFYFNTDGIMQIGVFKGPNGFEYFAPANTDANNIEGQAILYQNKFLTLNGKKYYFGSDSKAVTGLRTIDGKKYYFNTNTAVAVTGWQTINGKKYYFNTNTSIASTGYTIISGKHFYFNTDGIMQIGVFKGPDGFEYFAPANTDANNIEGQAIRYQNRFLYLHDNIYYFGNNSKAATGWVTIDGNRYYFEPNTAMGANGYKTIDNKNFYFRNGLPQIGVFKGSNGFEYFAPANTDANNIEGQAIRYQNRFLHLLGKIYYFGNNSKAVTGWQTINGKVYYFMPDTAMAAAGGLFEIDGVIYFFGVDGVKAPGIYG
# ASSAY COMMENT: SPR (Biacore 3000), VHH over immobilized TcdA, 1:1 fit
# Protocol: Before surface plasmon resonance (SPR) binding experiments, IMAC-purified VHHs were subjected to de-salting and further purification by size-exclusion chromatography (SEC). […] Monomeric VHH fractions were collected and analyzed for binding to TcdA using a Biacore 3000 SPR instrument (GE Healthcare). […] Reference-subtracted sensorgrams were analyzed with BIAevaluation software (GE Healthcare) and fit to a 1:1 binding model. […]
Answers are plain numbers, in M⁻¹ s⁻¹.

The examples below pair each entry with its known result.
- BINDER: "A26.8-T58K (VHH, not shown: small tags and cut ends) VHH: QVKLEESGGGLVQAGGSLRLSCAASERTFSRYPVAWFRQAPGAEREFVAVISSTGTSKYYADSVKGRFTISRDNAKVTVYLQMNNLKREDTAVYFCAVNSQRTRLQDPNEYDYWGQGTQVTVSS"
  UNIT ABBREVIATION: "M⁻¹ s⁻¹"
  kon: "2.47e+06"
- BINDER: "A26.8-T103K (VHH, not shown: small tags and cut ends) VHH: QVKLEESGGGLVQAGGSLRLSCAASERTFSRYPVAWFRQAPGAEREFVAVISSTGTSTYYADSVKGRFTISRDNAKVTVYLQMNNLKREDTAVYFCAVNSQRKRLQDPNEYDYWGQGTQVTVSS"
  UNIT ABBREVIATION: "M⁻¹ s⁻¹"
  kon: "2.47e+06"
- BINDER: "A26.8-T56R (VHH, not shown: small tags and cut ends) VHH: QVKLEESGGGLVQAGGSLRLSCAASERTFSRYPVAWFRQAPGAEREFVAVISSTGRSTYYADSVKGRFTISRDNAKVTVYLQMNNLKREDTAVYFCAVNSQRTRLQDPNEYDYWGQGTQVTVSS"
  UNIT ABBREVIATION: "M⁻¹ s⁻¹"
  kon: "4.75e+06"
- BINDER: "A26.8-T103R (VHH, not shown: small tags and cut ends) VHH: QVKLEESGGGLVQAGGSLRLSCAASERTFSRYPVAWFRQAPGAEREFVAVISSTGTSTYYADSVKGRFTISRDNAKVTVYLQMNNLKREDTAVYFCAVNSQRRRLQDPNEYDYWGQGTQVTVSS"
  UNIT ABBREVIATION: "M⁻¹ s⁻¹"
  kon: "2.7e+06"

Would you kindly look at the next entry?
Which kon value is on record for A26.8-T56R, Q101K, T103K (VHH, not shown: small tags and cut ends) VHH: QVKLEESGGGLVQAGGSLRLSCAASERTFSRYPVAWFRQAPGAEREFVAVISSTGRSTYYADSVKGRFTISRDNAKVTVYLQMNNLKREDTAVYFCAVNSKRKRLQDPNEYDYWGQGTQVTVSS ?
1.47e+07
